assayDetails: Solubility of verteporfin derivative compounds in water and buffer (pH = 2)
Type: physicochemical
studyConditions: phosphate buffer pH = 2
measuredEndpoint: Buffer (pH = 2) result

Reference set (4 entries):
compound	Buffer (pH = 2) result
C=Cc1c(C)c2cc3nc(cc4[nH]c(cc5nc(cc1[nH]2)C(C)=C5CCC(=O)OCCOCCOCCOCCOCCOCCOCCOC)c(CCC(=O)OC)c4C)[C@@]1(C)C3=CC=C(C(=O)OC)[C@H]1C(=O)OC [Compound T10]	insoluble
C=Cc1c(C)c2cc3nc(cc4[nH]c(cc5nc(cc1[nH]2)C(C)=C5CCC(=O)N(C)CCN(C)C)c(CCC(=O)OC)c4C)[C@@]1(C)C3=CC=C(C(=O)OC)[C@H]1C(=O)OC [Compound T14]	soluble
C=Cc1c(C)c2cc3nc(cc4[nH]c(cc5nc(cc1[nH]2)C(C)=C5CCC(=O)NCCCC[C@H](N)C(=O)O)c(CCC(=O)OC)c4C)[C@@]1(C)C3=CC=C(C(=O)OC)[C@H]1C(=O)OC [Compound T5]	soluble
C=Cc1c(C)c2cc3nc(cc4[nH]c(cc5nc(cc1[nH]2)C(C)=C5CCC(=O)O)c(CCC(=O)OC)c4C)[C@@]1(C)C3=CC=C(C(=O)OC)[C@H]1C(=O)OC [Verteporfin]	insoluble

Incoming: Please report the measured Buffer (pH = 2) result for C=Cc1c(C)c2cc3nc(cc4[nH]c(cc5nc(cc1[nH]2)C(C)=C5CCC(=O)NCCCC[C@H](N)C(=O)O)c(CCC(=O)NCCCC[C@H](N)C(=O)O)c4C)[C@@]1(C)C3=CC=C(C(=O)OC)[C@H]1C(=O)OC [Compound T7]
Outgoing: soluble
